As a worked illustration, we turn to pKd data collected for Programmed cell death 1 ligand 1 (Homo sapiens).
The quantity pKd is defined as the negative base-10 logarithm of the molar concentration.

The examples below pair each entry with its known result.
- chemical.structure: "Cc1c(COc2ccc(CN[C@H](CO)C(=O)O)c(OCc3cncc(C#N)c3)c2)cccc1-c1cccc(COc2ccc(CN[C@H](CO)C(=O)O)c(OCc3cncc(C#N)c3)c2)c1C"
  pKd: 10.72
- chemical.structure: "Cc1c(COc2ccc(CN[C@H](CO)C(=O)O)cc2)cccc1-c1cccc(COc2ccc(CN[C@H](CO)C(=O)O)c(OCc3cncc(C#N)c3)c2)c1C"
  pKd: 9.54
- chemical.structure: "COc1cc(OCc2cccc(-c3cccc(COc4ccc(CN[C@H](CO)C(=O)O)c(OCc5cncc(C#N)c5)c4)c3C)c2C)ccc1CN[C@H](CO)C(=O)O"
  pKd: 9.68
- chemical.structure: "Cc1ccccc1-c1cccc(COc2ccc(CN[C@H](CO)C(=O)O)c(OCc3cncc(C#N)c3)c2)c1C"
  pKd: 8.52
- chemical.structure: "Cc1c(COc2ccc(CN[C@H](CO)C(=O)O)c(OCc3cncc(C#N)c3)c2)cccc1-c1ccccc1"
  pKd: 8.96

Check the records and state pKd for `Cc1c(COc2ccc(CN[C@H](CO)C(=O)O)c(OCc3cncc(C#N)c3)c2)cccc1-c1cccc(COc2ccc(CN[C@H](CO)C(=O)O)c(OCc3cncc(C#N)c3)c2)c1`
9.70

Check the records and state pKd for `Cc1c(COc2cccc(OCc3cncc(C#N)c3)c2)cccc1-c1cccc(COc2ccc(CN[C@H](CO)C(=O)O)c(OCc3cncc(C#N)c3)c2)c1C`
8.43
